Where do these numbers come from? They come from PubChem BioAssay (NCI).

- System: SW-620 colon
- run description: NCI-60 one-dose screen, 48 h
- particulars: 10 µM unless noted
The panel holds about 83,000 compounds, 20% with a hit somewhere; the sample as a whole holds those more often. Calls of active or inactive are those of the source. The calls were made as follows: active = growth percent below 10; inactive = the rest.
Outcomes: yes (1) = active, no (0) = inactive

molecule | class assignment
O[C@@H](c1cc(C(F)(F)F)nc2c(C(F)(F)F)cccc12)[C@H]1CCCCN1 | no (0)
Cc1ccc2nc(Cl)c(Cn3nnnc3SCc3ccccc3)cc2c1 | no (0)
CC(C)c1ccc(-n2c(=S)[nH]c3sc4c(c3c2=O)CCC(=O)C4)cc1 | no (0)
Cc1[nH]c(C(=O)Nc2ccc(C(N)=O)cc2NC(C)C)c(Cl)c1Cl | no (0)
COc1ccc(NC(=O)c2sc3nc4c(cc3c2N)CCCC4)cc1 | no (0)
Nc1nc(C(=O)N/N=C/c2ccc(N3CCOCC3)cc2)nn1-c1ccc(S(N)(=O)=O)cc1 | no (0)
S=c1ssnc1-c1cccs1 | no (0)
O=C(N/N=C/c1ccc(O)cc1O)c1ccc(Nc2ccnc(C(F)(F)F)c2)cc1 | no (0)
CC(C)(C)C(=O)/C=C/c1ccc([N+](=O)[O-])cc1 | no (0)
COc1cc(-c2nc(NC(C)=O)sc2-c2ccnc(NCCNS(=O)(=O)c3ccccc3)n2)ccc1Cl | no (0)
C/C(C=O)=C\c1ccc2c(c1)OCO2 | no (0)
O=C(CSc1nc2ccc([N+](=O)[O-])cc2[nH]1)Nc1cccc([N+](=O)[O-])c1 | no (0)
C=NNc1ccccc1 | no (0)
O=P(O)(O)OCC1OC(n2cnc3c(NCc4ccccc4)ncnc32)C(O)C1O (stereo unspecified) | no (0)
CC(O)c1ncc(/C=C2\SC(=S)N(Cc3ccccc3)C2=O)s1 (stereo unspecified) | no (0)
Cc1nc2ccccc2c(/C=C/c2ccc(C(F)(F)F)cc2)c1C(=O)/C=C/c1ccccc1 | yes (1)
C[Se]C(=O)CC1=C2C=C(F)C=CC2/C(=C\c2ccc(S(C)=O)cc2)C1C (stereo unspecified) | yes (1)
COc1cc(-c2nc3occn3c2-c2ccnc(NCCCNS(=O)(=O)c3ccccc3)n2)ccc1F | no (0)
CN(C)c1ccc(/C=C/C(=O)c2ccc(Nc3nc(Nc4ccc(F)cc4)nc(Nc4ccc(Cl)cc4)n3)cc2)cc1 | no (0)
COc1ccc(OC)c(-c2cn3nc(-c4c[nH]c5ccc(Br)cc45)sc3n2)c1 | yes (1)
Cc1cc2nc3c4ccccc4n(CCN(C)C)c3nc2cc1C | yes (1)
